- Assay Notes: Pharmacokinetics of prodrug following PO administration to rats
- Reported Conditions: male, Sprague Dawley, rat, plasma, po, 27 mg/kg
Endpoint: Cmax (ng/mL)
Numbers only here, please. The scale is ng/mL.

GET /values?readout=Cmax&item= `C[C@@H](Cc1ccccc1)NC(=O)[C@H](CCCNC(=N)N)NC(=O)CC(=O)O`
811

====

- Assay Notes: Pharmacokinetics of prodrug following PO administration to rats
- Reported Conditions: male, Sprague Dawley, rat, plasma, po, 22 mg/kg
Endpoint: Tmax (min)
Number only, in min; omit the unit.

Consider the compound C[C@@H](Cc1ccccc1)NC(=O)[C@@H](N)CCCCN [Compound AM-3, lisdexamphetamine, reference compound] and give its measured Tmax.
37.5
